Exercise: state measured IC50 for each of the molecules provided.
Biological target: STING WT: His-TVMV-S-hSTING(155-341)-H232R (Homo sapiens, UniProt Q86WV6, H232R)
Construct: STING WT: His-TVMV-S-hSTING(155-341)-H232R
Sequence (Q86WV6 with tags, fused parts or gaps H232R): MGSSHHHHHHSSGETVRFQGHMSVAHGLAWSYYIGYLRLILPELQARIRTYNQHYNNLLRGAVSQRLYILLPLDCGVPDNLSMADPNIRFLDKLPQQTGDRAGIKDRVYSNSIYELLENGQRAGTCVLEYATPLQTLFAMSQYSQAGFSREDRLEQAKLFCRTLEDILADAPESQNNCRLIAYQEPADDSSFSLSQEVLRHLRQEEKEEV
Assay: STING HTRF binding assay (time resolved FRET competition), STING WT
Conditions: 20 nM His-tagged STING WT cytoplasmic domain, 200 nM fluorescein-labeled cGAMP analog probe, one hour; read-out: HTRF Binding Assays IC50 (μM) WT
Answers are plain numbers, in µM.

For orientation, consider the following solved cases.
molecule="Nc1ncnc2c1ncn2[C@@H]1O[C@@H]2COP(=O)(S)OC[C@@H]3[C@@H](COP(=O)(S)O[C@H]2[C@H]1F)C[C@H]3n1cnc2c(=O)[nH]cnc21 (single isomer, unassigned) [Example 22-4]" number=0.12
molecule="Nc1ncnc2c1ncn2[C@@H]1C[C@@H]2COP(=O)(S)O[C@@H]3[C@H](O)[C@@H](COP(=O)(S)OC[C@H]21)O[C@H]3n1cnc2c(=O)n3ccnc3[nH]c21 (single isomer, unassigned)" number=0.06

Now take the following molecule into account.
In: Please look at this molecule and report its IC50: Nc1ncnc2c1ncn2[C@@H]1C[C@@H]2COP(=O)(S)O[C@H]3[C@@H](O)[C@H](n4cnc5c(=O)n6cc[nH]c6nc54)O[C@@H]3COP(=O)(S)OC[C@H]21 (single isomer, unassigned) [Example 5-4]
Out: 34.5

###

Hi there, I'd appreciate the recorded IC50 for every entry that follows.
Target: STING AQ: His-TVMV-S-hSTING(155-341)-G230A-R293Q (Homo sapiens, UniProt Q86WV6, G230A/H232R/R293Q)
Construct: STING AQ: His-TVMV-S-hSTING(155-341)-G230A-R293Q
Sequence (Q86WV6 with tags, fused parts or gaps G230A/H232R/R293Q): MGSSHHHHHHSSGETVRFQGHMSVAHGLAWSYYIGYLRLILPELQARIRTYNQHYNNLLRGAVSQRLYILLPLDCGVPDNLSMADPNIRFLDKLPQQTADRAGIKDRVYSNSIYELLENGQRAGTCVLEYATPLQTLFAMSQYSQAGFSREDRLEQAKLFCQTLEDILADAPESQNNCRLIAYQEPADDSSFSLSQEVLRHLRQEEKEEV
Assay: STING HTRF binding assay (time resolved FRET competition), STING AQ
Conditions: 20 nM His-tagged STING AQ cytoplasmic domain, 40 nM fluorescein-labeled cGAMP analog probe, one hour; read-out: HTRF Binding Assays IC50 (μM) AQ
Number first, unit second.

Below, 4 compounds whose answers are already recorded.
compound="Nc1ncnc2c1ncn2[C@@H]1O[C@@H]2COP(=O)(S)OC[C@@H]3[C@@H](COP(=O)(S)O[C@H]2[C@H]1F)C[C@H]3n1cnc2c1ncn1ccnc21 (single isomer, unassigned) [Example 3-2]" result="0.03 µM"
compound="Nc1ncnc2c1ncn2[C@@H]1C[C@@H]2COP(=O)(S)O[C@@H]3[C@H](F)[C@@H](COP(=O)(S)OC[C@H]21)O[C@H]3n1cnc2c1ncn1ccnc21 (single isomer, unassigned) [Example 8-2]" result="0.51 µM"
compound="Nc1ncnc2c1ncn2[C@@H]1O[C@@H]2COP(=O)(S)OC[C@@H]3[C@@H](COP(=O)(S)O[C@H]2[C@H]1F)C[C@H]3n1cnc2c1ncn1ccnc21 (single isomer, unassigned) [Example 3-1]" result="0.09 µM"
compound="Nc1ncnc2c1ncn2[C@@H]1C[C@@H]2COP(=O)(S)O[C@H]3[C@@H](F)[C@H](n4cnc5c4ncn4ccnc54)O[C@@H]3COP(=O)(S)OC[C@H]21 (single isomer, unassigned) [Example 17-2]" result="0.46 µM"

In: Supply measured IC50 of Nc1ncnc2c1ncn2[C@@H]1C[C@@H]2COP(=O)(S)O[C@@H]3[C@H](F)[C@@H](COP(=O)(O)OC[C@H]21)O[C@H]3n1cnc2c(=O)n3ccnc3[nH]c21 (some centres unmarked) in your reply.
Out: 0.002 µM
